Recorded values, source BindingDB's records for doi:10.1007/s00213-009-1521-8.

Biological target: Muscarinic acetylcholine receptor M5 (Homo sapiens, UniProt P08912)
Sequence (P08912 whole entry): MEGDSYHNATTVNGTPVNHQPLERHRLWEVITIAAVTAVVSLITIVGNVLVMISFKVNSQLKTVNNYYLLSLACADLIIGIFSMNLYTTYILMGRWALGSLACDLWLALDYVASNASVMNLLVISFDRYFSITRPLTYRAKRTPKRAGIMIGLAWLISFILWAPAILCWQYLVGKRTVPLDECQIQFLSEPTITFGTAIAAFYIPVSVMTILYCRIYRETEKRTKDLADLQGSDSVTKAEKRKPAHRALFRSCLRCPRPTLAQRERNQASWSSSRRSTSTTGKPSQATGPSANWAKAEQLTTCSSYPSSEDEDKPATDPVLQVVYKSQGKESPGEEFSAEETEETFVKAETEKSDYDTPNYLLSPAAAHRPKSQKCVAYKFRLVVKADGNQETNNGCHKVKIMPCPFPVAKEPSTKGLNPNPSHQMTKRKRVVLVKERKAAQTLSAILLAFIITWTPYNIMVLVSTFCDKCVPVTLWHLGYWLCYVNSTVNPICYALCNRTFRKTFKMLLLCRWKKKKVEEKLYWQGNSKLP
parameter-measured: Ki

Input line: Look up Ki for this molecule: CCN1CCCC1CNC(=O)c1cc(S(=O)(=O)CC)c(N)cc1OC (stereo unspecified) [NSC_2159]
Output line: > 10 µM
